Reference source: ChEMBL document CHEMBL2331215

- Measurement target: Muscarinic acetylcholine receptor M5 (Homo sapiens)
- Assay method text: Partial agonist activity at human M5 receptor in CHO cells assessed as calcium mobilization at 3 uM after 60 mins by FLIPR assay
- Format: functional, cell-based
I'd be grateful if you could share measured Activity for these entries.

Sample CCOC(=O)N1[C@@H]2CC[C@H]1C[C@H](CN1CC[C@H](N3C(=O)Cc4ccccc43)C1)C2 — what was its Activity?
17%

// next record CCOC(=O)N1CCC(O)(CN2CC[C@H](N3C(=O)Cc4ccccc43)C2)CC1
3%

// next record CCOC(=O)N1CCC(C)(CN2CC[C@H](N3C(=O)Cc4ccccc43)C2)CC1
4%

// next record CCOC(=O)N1CCC(CN2CC[C@H](N3C(=O)Cc4ccccc43)C2)CC1
5%

###

- Measurement target: Muscarinic acetylcholine receptor M2 (Homo sapiens)
- Sequence (whole entry): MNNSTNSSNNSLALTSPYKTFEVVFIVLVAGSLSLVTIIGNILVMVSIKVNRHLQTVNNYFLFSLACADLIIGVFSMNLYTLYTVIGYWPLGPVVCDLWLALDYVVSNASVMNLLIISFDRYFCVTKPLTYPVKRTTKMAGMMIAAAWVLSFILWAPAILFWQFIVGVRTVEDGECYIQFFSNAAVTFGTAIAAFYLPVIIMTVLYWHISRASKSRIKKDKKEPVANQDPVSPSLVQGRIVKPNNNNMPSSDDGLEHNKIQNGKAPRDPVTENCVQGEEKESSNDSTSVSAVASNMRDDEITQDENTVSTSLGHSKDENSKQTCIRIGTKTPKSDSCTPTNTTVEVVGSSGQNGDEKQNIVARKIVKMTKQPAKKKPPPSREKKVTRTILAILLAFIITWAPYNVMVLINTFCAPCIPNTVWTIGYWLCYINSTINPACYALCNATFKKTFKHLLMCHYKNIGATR
- Assay method text: Partial agonist activity at human M2 receptor co-expressed with Galpha16 in CHO cells assessed as calcium mobilization at 3 uM after 60 mins by FLIPR assay
- Format: functional, cell-based
Measurement name: Activity
In your response, the unit should come after the numeric value.

Sample CCOC(=O)N1CCC(CN2CC[C@H](N3C(=O)Cc4ccccc43)C2)CC1 — what was its Activity?
30%

// next record CCOC(=O)N1CCC(O)(CN2CC[C@H](N3C(=O)Cc4ccccc43)C2)CC1
12%

// next record CCOC(=O)N1[C@@H]2CC[C@H]1C[C@H](CN1CC[C@H](N3C(=O)Cc4ccccc43)C1)C2
25%

// next record CCOC(=O)N1CCC(C)(CN2CC[C@H](N3C(=O)Cc4ccccc43)C2)CC1
3%

###

- Measurement target: Muscarinic acetylcholine receptor M4 (Homo sapiens) (UniProt P08173)
- Sequence (P08173 whole entry): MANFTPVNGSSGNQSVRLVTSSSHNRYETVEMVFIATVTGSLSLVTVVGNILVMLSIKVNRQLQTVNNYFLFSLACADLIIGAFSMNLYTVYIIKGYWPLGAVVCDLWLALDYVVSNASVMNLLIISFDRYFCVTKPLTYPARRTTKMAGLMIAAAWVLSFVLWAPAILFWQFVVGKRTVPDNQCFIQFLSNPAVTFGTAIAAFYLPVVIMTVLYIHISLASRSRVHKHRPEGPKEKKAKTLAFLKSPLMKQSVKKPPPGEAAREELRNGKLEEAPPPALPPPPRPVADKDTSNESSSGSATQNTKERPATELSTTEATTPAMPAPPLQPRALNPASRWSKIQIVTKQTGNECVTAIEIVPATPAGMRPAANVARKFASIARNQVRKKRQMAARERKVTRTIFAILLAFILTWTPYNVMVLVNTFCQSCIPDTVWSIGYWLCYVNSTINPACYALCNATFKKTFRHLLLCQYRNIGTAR
- Assay method text: Agonist activity at M4 receptor (unknown origin) at 3 uM by calcium mobilization assay
- Format: functional
Measurement name: Activity (%)
The figure you give is taken to be in %; do not add the unit.

Field: Activity (Muscarinic acetylcholine receptor M4 (Homo sapiens) (UniProt P08173)). Entry: CCOC(=O)N1CCC(CN2CC[C@@H](N3C(=O)Cc4ccccc43)C2)CC1
86

// next record CCCCCCOc1nsnc1C1=CCCN(C)C1.O=C(O)C(O)C(O)C(=O)O [XANOMELINE TARTRATE]
83

// next record CCOC(=O)N1CCC(CN2CC(N3C(=O)Cc4ccccc43)C2)CC1
46

// next record CCOC(=O)N1CCC(CN2CCCC(N3C(=O)Cc4ccccc43)CC2)CC1 (configuration not stated)
4

// next record CC(C)=CCN1CCC(N2C(=O)C(C)(C)c3ccccc32)CC1
14

// next record CCOC(=O)N1CCC(CN2CCC(N3C(=O)Cc4ccccc43)CC2)CC1
33

// next record CCOC(=O)N1CCC(CN2CC[C@H](N3C(=O)Cc4ccccc43)C2)CC1
124
